Values from patent US20060264460A1

- target.or.system: human Cot/Tpl2 kinase (Homo sapiens)
- Construct: human Cot/Tpl2 kinase construct encoding residues 30-398; 6His (N); made in house; host or cells: Sf9 insect cells, baculovirus system (BD Biosciences)
- test.protocol: Tpl2/Cot kinase assay: GST-MEK1 phosphorylation detected by ELISA (DELFIA Eu)
- Type: biochemical
- measurement.conditions: Tpl2/Cot kinase, GST-MEK1 substrate, 50 uM ATP
Readings of IC50 for the listed molecules
State the answer as a number, implicitly in nM.

molecule | target.or.system | observed.value
COCCCNC(=O)CNc1cc(Cl)c2ncc(C#N)c(Nc3ccc(F)c(Cl)c3)c2c1 | human Cot/Tpl2 kinase (Homo sapiens) | 230
N#Cc1cnc2c(Cl)cc(NCc3cn(CC4CCCCC4)nn3)cc2c1Nc1ccc(F)c(Cl)c1 | human Cot/Tpl2 kinase (Homo sapiens) | 790
CN(C)C(=O)N1CCC[C@@H]1Cn1cc(CNc2cc(Cl)c3ncc(C#N)c(Nc4ccc(F)c(Cl)c4)c3c2)nn1 | human Cot/Tpl2 kinase (Homo sapiens) | 110
N#Cc1cnc2c(Br)cc(NCc3cn(Cc4cccnc4)cn3)cc2c1Nc1ccc(F)c(Cl)c1 | human Cot/Tpl2 kinase (Homo sapiens) | 3.1
N#Cc1cnc2c(Cl)cc(NCc3cn(CCOCCOCCO)nn3)cc2c1Nc1ccc(F)c(Cl)c1 | human Cot/Tpl2 kinase (Homo sapiens) | 91

# query: IC50 of entry Cc1c(Cn2cc(CNc3cc(Cl)c4ncc(C#N)c(Nc5ccc(F)c(Cl)c5)c4c3)nn2)ccc[n+]1[O-]
0.9

# query: IC50 of entry CN(C)CCNCC(=O)N1CCCC(CNc2cc(Cl)c3ncc(C#N)c(Nc4ccc(F)c(Cl)c4)c3c2)C1 (stereo not shown)
860

# query: IC50 of entry N#Cc1cnc2c(Br)cc(NCc3nc[nH]n3)cc2c1Nc1ccc(F)c(Cl)c1
110

# query: IC50 of entry N#Cc1cnc2c(Cl)cc(NCCNS(=O)(=O)Cc3ccccn3)cc2c1Nc1ccc(F)c(Cl)c1
670

# query: IC50 of entry CNCCn1cc(CNc2cc(Cl)c3ncc(C#N)c(Nc4ccc(F)c(Cl)c4)c3c2)nn1
29

# query: IC50 of entry CCOC(=O)C1CC1CNc1cc(Cl)c2ncc(C#N)c(Nc3ccc(F)c(Cl)c3)c2c1 (stereo not shown)
660

# query: IC50 of entry N#Cc1cnc2c(Cl)cc(NCc3cn(CCc4ccncc4)nn3)cc2c1Nc1ccc(F)c(Cl)c1
0.9

# query: IC50 of entry N#Cc1cnc2c(Cl)cc(NCC3CCNCC3)cc2c1Nc1ccc(F)c(Cl)c1
1240

# query: IC50 of entry N#Cc1cnc2c(Br)cc(NCC(=O)O)cc2c1Nc1ccc(F)c(Cl)c1
140

---

Readings of IC50 for the listed molecules
- target.or.system: human Cot/Tpl2 kinase (Homo sapiens)
- Construct: human Cot/Tpl2 kinase construct encoding residues 30-398; 6His (N); made in house; host or cells: Sf9 insect cells, baculovirus system (BD Biosciences)
- test.protocol: Tpl2/Cot kinase assay: GST-MEK1 phosphorylation detected by ELISA (DELFIA Eu)
- Type: biochemical
- measurement.conditions: 0.4 nM Tpl2, 35 nM GST-MEK1, 50 uM ATP, 1 h at 30° C.
State the answer as a number, implicitly in µM.

Study these solved cases before continuing.
molecule | IC50, µM
CCOC(=O)/C=C/c1cc(NCc2cnc[nH]2)cc2c(Nc3ccc(F)c(Cl)c3)c(C#N)cnc12 [Example 312] | 9.7
N#Cc1cnc2ccc(NCc3cccc[n+]3[O-])cc2c1NC1CCCCCC1 [Example 253] | 1.4
N#Cc1cnc2ccc(NC(=O)c3ccccc3)cc2c1Nc1ccc(F)c(Cl)c1 [Example 1] | 11

# query: IC50 of entry Cn1cc(CNc2cc(Br)c3ncc(C#N)c(Nc4ccc(F)c(Cl)c4)c3c2)nn1 [Example 221]
0.028

---

- target.or.system: human Cot/Tpl2 kinase (Homo sapiens, UniProt P41279)
- Construct: human Cot/Tpl2 kinase construct encoding residues 30-398; 6His (N); made in house; host or cells: Sf9 insect cells, baculovirus system (BD Biosciences)
- Sequence (P41279 30-398): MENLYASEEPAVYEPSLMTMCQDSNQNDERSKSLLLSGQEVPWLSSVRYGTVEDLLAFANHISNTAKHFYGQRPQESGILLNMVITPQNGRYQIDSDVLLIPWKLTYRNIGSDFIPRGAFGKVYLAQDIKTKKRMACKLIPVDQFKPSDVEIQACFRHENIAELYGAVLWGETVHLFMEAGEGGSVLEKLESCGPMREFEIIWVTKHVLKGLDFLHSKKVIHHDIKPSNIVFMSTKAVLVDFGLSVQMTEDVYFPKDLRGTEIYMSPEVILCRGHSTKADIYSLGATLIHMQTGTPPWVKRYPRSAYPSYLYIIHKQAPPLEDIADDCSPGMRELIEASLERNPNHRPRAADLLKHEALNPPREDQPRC
- test.protocol: Tpl2/Cot kinase assay: GST-MEK1 phosphorylation detected by ELISA (DELFIA Eu)
- Type: biochemical
- measurement.conditions: Tpl2/Cot kinase, GST-MEK1 substrate, 50 uM ATP
metric.name: pIC50
Here pIC50 is given on a logarithmic scale as minus log10 of the concentration in mol/L.

Study these solved cases before continuing.
molecule | pIC50
N#Cc1cnc2c(Br)cc(NCc3cc(C4CCNCC4)n[nH]3)cc2c1Nc1ccc(F)c(Cl)c1 [Example 707] | 6.10
CS(=O)(=O)Cn1cc(CNc2cc(Br)c3ncc(C#N)c(Nc4ccc(F)c(Cl)c4)c3c2)nn1 [Example 704] | 7.48
N#Cc1cnc2c(Br)cc(NCc3cn(CC4CCCN4)nn3)cc2c1Nc1ccc(F)c(Cl)c1 (stereo not drawn) [Example 722] | 8.04

# query: pIC50 of entry CCN(Cc1cn(CC(=O)N(C)C)nn1)c1cc(Br)c2ncc(C#N)c(Nc3ccc(F)c(Cl)c3)c2c1 [Example 835]
8.04

# query: pIC50 of entry CCN1CCC[C@@H]1Cn1cc(CNc2cc(Cl)c3ncc(C#N)c(Nc4ccc(F)c(Cl)c4)c3c2)nn1 [Example 892]
7.52

# query: pIC50 of entry CCNC(=O)N1CCC(CCn2cc(CNc3cc(Cl)c4ncc(C#N)c(Nc5ccc(F)c(Cl)c5)c4c3)nn2)CC1 [Example 831]
8.03

# query: pIC50 of entry N#Cc1cnc2c(Br)cc(NCc3cn(CCOC(N)=O)nn3)cc2c1Nc1ccc(F)c(Cl)c1 [Example 833]
8.05

# query: pIC50 of entry CN1CCC(CCn2cc(CNc3cc(Br)c4ncc(C#N)c(Nc5ccc(F)c(Cl)c5)c4c3)nn2)CC1 [Example 695]
7.36

# query: pIC50 of entry CN1CCC(CCn2cc(CNc3cc(Cl)c4ncc(C#N)c(Nc5ccc(F)c(Cl)c5)c4c3)nn2)CC1 [Example 696]
8.77

---

- target.or.system: human Cot/Tpl2 kinase (Homo sapiens, UniProt P41279)
- Construct: human Cot/Tpl2 kinase construct encoding residues 30-398; 6His (N); made in house; host or cells: Sf9 insect cells, baculovirus system (BD Biosciences)
- test.protocol: Tpl2/Cot kinase assay: GST-MEK1 phosphorylation detected by ELISA (DELFIA Eu)
- Assay type: biochemical
- measurement.conditions: Tpl2/Cot kinase, GST-MEK1 substrate, 50 uM ATP, 1 h at 30° C.; Table 2
metric.name: IC50 (nM)
State the answer as a number, implicitly in nM.

Study these solved cases before continuing.
compound | value.units | IC50
N#Cc1cnc2c(Cl)cc(NCc3cn(C4CCCNCC4)nn3)cc2c1Nc1ccc(F)c(Cl)c1 (stereo not drawn) [Example 1007] | nM | 16
N#Cc1cnc2c(Cl)cc(NCc3cn(CCN4CCN(CC5CC5)CC4)nn3)cc2c1Nc1ccc(F)c(Cl)c1 [Example 966] | nM | 150

# query: IC50 of entry N#Cc1cnc2c(Cl)cc(NC[C@H]3C[C@H](O)CO3)cc2c1Nc1ccc(F)c(Cl)c1 [Example 932]
410

# query: IC50 of entry N#CCN1CCC(n2cc(CNc3cc(Cl)c4ncc(C#N)c(Nc5ccc(F)c(Cl)c5)c4c3)nn2)CC1 [Example 998]
22

# query: IC50 of entry CC(C)N1CCC(n2cc(CNc3cc(Cl)c4ncc(C#N)c(NC5CCOCC5)c4c3)nn2)CC1 [Example 1000]
480

# query: IC50 of entry N#Cc1cnc2c(Cl)cc(NCc3cn(C4CCCN(CC(F)F)CC4)nn3)cc2c1Nc1ccc(F)c(Cl)c1 (stereo not drawn) [Example 1010]
310

# query: IC50 of entry CCNC(=O)N1CCC(n2cc(CNc3cc(Cl)c4ncc(C#N)c(Nc5ccc(F)c(Cl)c5)c4c3)nn2)CC1 [Example 931]
18.9

# query: IC50 of entry N#Cc1cnc2c(Cl)cc(NCc3cn(C4CCCN(C5CCC5)CC4)nn3)cc2c1Nc1ccc(F)c(Cl)c1 (stereo not drawn) [Example 1030]
12

# query: IC50 of entry N#Cc1cnc2c(Cl)cc(NCc3cn(CCN4CCCCC4)nn3)cc2c1NC1CCC1 [Example 954]
520

---

- target.or.system: human Cot/Tpl2 kinase (Homo sapiens, UniProt P41279)
- Construct: human Cot/Tpl2 kinase construct encoding residues 30-398; 6His (N); made in house; host or cells: Sf9 insect cells, baculovirus system (BD Biosciences)
- test.protocol: Tpl2/Cot kinase assay: GST-MEK1 phosphorylation detected by ELISA (DELFIA Eu)
- Format: biochemical
- measurement.conditions: Table 2; Tpl2/Cot kinase, GST-MEK1 substrate, 50 uM ATP
IC50 strictly under 80 nM means met; at 80 nM or over means not met.

compound | group
N#Cc1cnc2c(Br)cc(N)cc2c1Nc1cccc(Cl)c1 [Example 365] | not met
CC(=O)c1cc(NCc2cnc[nH]2)cc2c(Nc3ccc(F)c(Cl)c3)c(C#N)cnc12 [Example 459] | met
N#Cc1cnc2c(Br)cc(NCc3cn(-c4ccncc4)cn3)cc2c1Nc1ccc(F)c(Cl)c1 [Example 554] | met
N#Cc1cnc2c(Cl)cc(NCc3cn(CCCN4CCCCC4)nn3)cc2c1Nc1ccc(F)c(Cl)c1 [Example 539] | met
N#Cc1cnc2c(Cl)cc(NCc3cn(CCN4CCOCC4)cn3)cc2c1Nc1ccc(F)c(Cl)c1 [Example 490] | met

Here's an entry: CCN1CC(CCn2cc(CNc3cc(Cl)c4ncc(C#N)c(Nc5ccc(F)c(Cl)c5)c4c3)nn2)N(c2ccccc2)C1=S (centres unmarked) [Example 617] . Is its IC50 below 80 nM?
not met

Here's an entry: CC(C)N1CCC(Nc2ccc3ncc(C#N)c(Nc4ccc(F)c(Cl)c4)c3c2)CC1 [Example 366] . Is its IC50 below 80 nM?
not met
